Just for reference, patent US10526291B2 is where these values come from.

- Tested system: BRD4 (Homo sapiens, UniProt O60885)
- Assay details: Differential Scanning Fluorimetry (DSF), stability of BRD4 upon ligand binding
- Condition parameters: estimated
pIC50: −log10 of the molar value.
Record 1 whenever pIC50 is at 6 or higher; record 0 when lower.

# example entries with known answers
> print(dat)
                            smiles.notation  assigned.category
1  CN1CCN(c2ccc(Nc3ncc(Cl)c(Nc4cccc(NS(=O)(=O)C5CC5)c4)n3)cc2)CC1                  1
2  CN1CCN(c2ccc(Nc3ncc(C(=O)O)c(Nc4cccc(S(=O)(=O)NC(C)(C)C)c4)n3)cc2)CC1                  0
3  Cc1cnc(Nc2ccc(N3CCN(C)CC3)cc2)nc1Nc1ccc(Cl)c(S(=O)(=O)NC(C)(C)C)c1                  1
4  CN1CCN(c2ccc(Nc3nc4c(c(Nc5cccc(NS(=O)(=O)C(C)(C)C)c5)n3)CCC4)cc2)CC1                  1

Q: Could you please find out whether CN1CCN(c2ccc(Nc3nc4c(c(Nc5cccc(S(=O)(=O)NC(C)(C)C)c5)n3)CCC4)cc2)CC1 has pIC50 that meets 6 or exceeds it?
Result: 1
